Reference source for all entries: patent US8178506B2

System: HSL
Assay: HSL mRNA expression in adipocytes (real-time PCR)
Type: cell-based, human
Conditions: adipocytes, 250 nM oligomeric compound, day nine post-transfection, relative to control (1.0); Table 16
Experimental: Expression of the four hallmark genes, HSL, aP2, Glut4, and PPARγ, is also measured in adipocytes transfected with oligomeric compounds of the invention. Cells are lysed on day nine post-transfection and total RNA is harvested. The amount of total RNA in each sample is determined using a Ribogreen Assay (Invitrogen Life Technologies, Carlsbad, Calif.). […]
In the oligonucleotide strings, read from the 5' end, every base follows the letter of its sugar. An asterisk marks phosphorothioate; unmarked linkages are phosphodiester. Other units and linkages are bracketed, terminal groups are in braces. A string of capitals states the bases alone. e = 2'-O-(2-methoxyethyl) (MOE); [5mC] = 5-methylcytosine
Measurement type: HSL (mRNA expression)
Write no unit; give the number alone.

Recorded HSL (mRNA expression) (substance 327942 (antisense e[5mC]*e[5mC]*eA*eT*e[5mC]*eT*eT*eT*eA*e[5mC]*e[5mC]*eA*eG*eA*e[5mC]*eA*eG*eT*eG*eT*eT) [compound 327942] ): 0.79

Recorded HSL (mRNA expression) (substance 327941 (antisense eA*eA*e[5mC]*e[5mC]*e[5mC]*eA*e[5mC]*e[5mC]*eG*eA*e[5mC]*eA*eG*e[5mC]*eA*eA*eT*eG*eA*eA*eT*eG*eT*eT) [compound 327941] ): 0.81

Recorded HSL (mRNA expression) (substance 327931 (antisense eA*eA*e[5mC]*e[5mC]*eA*eT*eA*e[5mC]*eA*eA*e[5mC]*e[5mC]*eT*eA*e[5mC]*eT*eA*e[5mC]*e[5mC]*eT*e[5mC]*eA) [compound 327931] ): 0.99

Recorded HSL (mRNA expression) (substance 327955 (antisense eG*e[5mC]*e[5mC]*e[5mC]*eT*eT*eT*e[5mC]*eA*eT*e[5mC]*eA*eT*eT*eG*e[5mC]*eA*e[5mC]*eT*eG) [compound 327955] ): 0.82

Recorded HSL (mRNA expression) (substance 327903 (antisense eA*eA*e[5mC]*eT*eA*eT*eA*e[5mC]*eA*eA*e[5mC]*e[5mC]*eT*eA*e[5mC]*eT*eA*e[5mC]*e[5mC]*eT*e[5mC]*eA) [compound 327903] ): 0.80

Recorded HSL (mRNA expression) (substance 327967 (antisense eA*e[5mC]*eT*eG*eT*eA*e[5mC]*eA*eA*eA*e[5mC]*eT*eA*e[5mC]*eT*eA*e[5mC]*e[5mC]*eT*e[5mC]*eA) [compound 327967] ): 0.97

###

tested on: Glut4; assay: Glut4 mRNA expression in adipocytes (real-time PCR); format: cell-based, human; conditions: differentiating adipocytes transfected with oligomeric compound; Table 75
In the oligonucleotide strings, read from the 5' end, every base follows the letter of its sugar. An asterisk marks phosphorothioate; unmarked linkages are phosphodiester. Other units and linkages are bracketed, terminal groups are in braces. A string of capitals states the bases alone. e = 2'-O-(2-methoxyethyl) (MOE); [5mC] = 5-methylcytosine
Measurement type: GLUT4 mRNA

Recorded GLUT4 mRNA (substance 327949 (antisense e[5mC]*eA*e[5mC]*eA*eA*eA*eT*eT*e[5mC]*eG*eG*eA*eT*e[5mC]*eT*eA*e[5mC]*eA*eG*eG*eG*eT*eA) [compound 327949] ): 20 percentage of untreated control (UTC)

Recorded GLUT4 mRNA (substance 328113 (antisense e[5mC]*eA*eA*eA*eA*eA*eT*eT*eA*eT*e[5mC]*eA*eG*e[5mC]*e[5mC]*eA*eG*eT*eT*eT*eA) [compound 328113] ): 78 percentage of untreated control (UTC)

Recorded GLUT4 mRNA (substance 327886 (antisense e[5mC]*eG*e[5mC]*eG*eT*eA*e[5mC]*e[5mC]*eA*eA*eA*eA*eG*eT*eA*eA*eT*eA*eA*eT*eG) [compound 327886] ): 13 percentage of untreated control (UTC)
